Consider the following variants and their measured self-cleavage kobs at 10000 uM GlcN6P readings.
B1: glmS ribozyme (parent)
chain: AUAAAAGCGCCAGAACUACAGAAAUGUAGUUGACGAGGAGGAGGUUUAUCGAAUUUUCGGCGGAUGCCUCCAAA

- Variants of: B1
- Experiment description: self-cleavage kobs at 10000 uM GlcN6P; higher = faster cleavage; RNA array
- Settings: with glucosamine-6-phosphate
Variants at the floor of the assay were thinned out.
Numbers only here, please. The scale is s⁻¹.

Write down self-cleavage kobs at 10000 uM GlcN6P measured for item AUAAAAGCGCCCGAUCUACAGAAAUGUAGUUGACGAGGAGGAGGUUUAUCGAAUUUUCGGCGGAUGCCUCCAAA [A12C A15U] 0.00271

Write down self-cleavage kobs at 10000 uM GlcN6P measured for item AUAAAAGCGCCAGUACUACAGAAAUGUAGUUGACGAGGACGAGGUUUAUCGAAUUUUCGGCGGAUGCCUCCAAA [A14U G40C] 0.000522

Write down self-cleavage kobs at 10000 uM GlcN6P measured for item AUAAAAGCGCCAGAACUACAGAAAUGUAGUUGACGAGGAGGAGGUUUAUGGAAUUUUCGACGGAUGCCUCGAAA [C50G G60A C71G] 0.000124

Write down self-cleavage kobs at 10000 uM GlcN6P measured for item AUAAAAGCGCCAGAACUACAGAAAUGUAGUUGACGAGGAGGAGGUUUAGCGACUUUUCGGCGGAUGCCUCCAAA [U49G A53C] 0.000368

Write down self-cleavage kobs at 10000 uM GlcN6P measured for item AUAAAUGCGCCAGAACUACAGAAAUGUAGUUGACGAGGUGGAGGUUUAUCGAAUUUUCGGCGGAUGCCUUCAAA [A6U A39U C70U] 6.76e-05

Write down self-cleavage kobs at 10000 uM GlcN6P measured for item AUAAAAGCGCCAGAACUACAGAAAUUUAGUUGACGAGGAGGAGGUUUAGCGAAUUAUCGGCGGAUGCCUCCAAA [G26U U49G U56A] 0.00027

Write down self-cleavage kobs at 10000 uM GlcN6P measured for item AUAAAGGCGCCAGAACUACAGAAAUGUAGUUGACGAGGAGGAGGUUUAUCGAAUUUUCGGCGGAUGACUCCAAA [A6G C67A] 9.19e-05

Write down self-cleavage kobs at 10000 uM GlcN6P measured for item AUAAAUGCGCCAGAACUACAGAAAUGUAGUUGACGAGGGGGAGGUUUAUCGAAUUUUCGGCGGAUGCCUCCAAA [A6U A39G] 0.000175

Write down self-cleavage kobs at 10000 uM GlcN6P measured for item AUAAAAGCGCCAGAACUACAGAAAUGUAGUCGACGAGGAGGAGGUUUAUCGUAUUUUCGGCGGAUGCCUCCAAA [U31C A52U] 5.66e-05

Write down self-cleavage kobs at 10000 uM GlcN6P measured for item AUAAAAGCGCCAGAACUACAGAAAUGUAGUUGACGAGGAGUAGGUUUAUCGAAUUUUCGGCGGAUGUCUCCAAA [G41U C67U] 2.83e-05

Write down self-cleavage kobs at 10000 uM GlcN6P measured for item AUAAAAGCGCCAGAACUACAGAAAUGUAGUUGACGAGGAGGAGGUUAAUCGAAUUUUCGGCGGAUGUCUCCAAA [U47A C67U] 0.00638

Write down self-cleavage kobs at 10000 uM GlcN6P measured for item AUAAAAGCGCCCGAAAUACAGAAAUGUAGUUGACGAGGAGGAGGUUUAUCGAAUUUUCGGCGGAUGCCUCCAAA [A12C C16A] 0.000927

Write down self-cleavage kobs at 10000 uM GlcN6P measured for item AUAAAAGCGCCAGAGCUACAGAAAUGUAGUUGACGAGGAGGAGGUUUAUCGAAUUUUCGGCGGAUUCCUCCAAA [A15G G66U] 0.00374

Write down self-cleavage kobs at 10000 uM GlcN6P measured for item AUAAAAGCGCCAGGACUACAGAAAUGUAGUUGACGAGGAGGAGGUUUUUCGAAUUUUCGGCGGAUGCCUCCAAA [A14G A48U] 0.000999

Write down self-cleavage kobs at 10000 uM GlcN6P measured for item AUAAAAGCGCCAGAACUACAGAAAUGUACUUGACGAGGAGGAGGUUUAUCGAAUUUUCGGCGGAUGCCUCAAAA [G29C C71A] 0.000253

Write down self-cleavage kobs at 10000 uM GlcN6P measured for item AUAAAAGCGCCAGAACUACAUAAAUGUAGUUGACGAGGAGGAGGUUUAUCGAAUUUUCGGCGGAUGCCUGCAAA [G21U C70G] 9.23e-05

Write down self-cleavage kobs at 10000 uM GlcN6P measured for item AUAAAAGCGCCAGAACUACAGAAAUGUAGUUGACGAGGCGGAGGUUUAUCGAAUUUUCGGCGGAUGCCUCCAAA [A39C] 0.00752

Write down self-cleavage kobs at 10000 uM GlcN6P measured for item AUAAAAGCGCCGGAACUACAGAAAUGUAGUUGACGAGGAAGAGGUUUAUCGAAUUUUCGGCGGAUGCCUCCAAA [A12G G40A] 0.000486

Write down self-cleavage kobs at 10000 uM GlcN6P measured for item AUAAAAGCGCCAGGACUACAGAAAUGUAGUUGACGAGGAGGAUGUUAAUCGAAUUUUAGGCGGAUGACUCCAAA [A14G G43U U47A C58A C67A] 7.13e-05

Write down self-cleavage kobs at 10000 uM GlcN6P measured for item AUAAAAGCGCCUGAACUACAGAAAUGUAGUUGACGAGGAGGAGCUUUAUCGAAUUUUCGGCGGAUGCCUCCAAA [A12U G44C] 0.000195

Write down self-cleavage kobs at 10000 uM GlcN6P measured for item AUAAAAGCGCCAGAACUACAGAAAUGUAGUCGACGAGGAGGAGGUUAAUCGAAUUCUCGGCGGAUGCCUCCAAA [U31C U47A U56C] 0.000707

Write down self-cleavage kobs at 10000 uM GlcN6P measured for item AUAAAAGCGCCAGAACUACAGAAAUGUAGUUGACGAGGAGGAGGUUUAUCGAAUAUUCAGCGGAUGCCUCCAAA [U55A G59A] 5.69e-05

These entries and their values trace back to the supplement of paper PMC7125110.
